# ASSAY_EXPLANATION: Oil spreading time on human inner forearm (spreadability factor S^R)
# Assay type: physicochemical
# SETTINGS: 4 μL oil, 12 mm×8 mm ellipse on inner forearm; normalized to oleyl oleate; data of present work
REPORTED_PROPERTY: Relative Spreading Time (spreadability factor S^R)

Example compounds with recorded Relative Spreading Time (spreadability factor S^R):
{"COMPOUND": "CCCCCCCCCCCCCCCC(=O)OC(C)C [Isopropanol Palmitate]", "NUMBER": 0.7}
{"COMPOUND": "CC(C)CCCC(C)CCCC(C)CCCCC(C)CCCC(C)CCCC(C)C (stereo not shown)", "NUMBER": 1.0}

a = CCCCCCCC/C=C\CCCCCCCCOC(=O)CCCCCCC/C=C\CCCCCCCC [Oleyl Oleate, reference compound]
b = CCCCCCCCOCCCCCCCC
Higher Relative Spreading Time (spreadability factor S^R): a or b ? Answer by quoting the chosen item's label.
a

P = CC(C)=CCC/C(C)=C/CC/C(C)=C/CC/C=C(\C)CC/C=C(\C)CCC=C(C)C
Q = CCCCCCCCCCCCCC(=O)OC(C)C [Isopropanol Myristrate]
Kindly compare P with Q and tell me which has the lower Relative Spreading Time (spreadability factor S^R) figure. Answer by quoting the chosen item's label.
Q
